B1: HDAC6 (parent)
chain: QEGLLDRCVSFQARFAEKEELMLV

Variants of: B1
Test: protein stability index of a GFP-peptide fusion (GPS, HEK-293T) (PSI 1-6); higher = more stable;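 also: lentivirally expressed fusions sorted by FACS into six bins by GFP to DsRed ratio, PSI derived from sequencing read proportions per bin multiplied by bin number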
Details: c terminus: a fixed tail appended
Where protein stability index equals or exceeds 2, the correct label is yes; where it does not, the label is no.

Given the entry `M22C` , answer whether its protein stability index meets or surpasses 2.
yes

Given the entry `L4K` , answer whether its protein stability index meets or surpasses 2.
no

Given the entry `A13C` , answer whether its protein stability index meets or surpasses 2.
no

Given the entry `L21Y` , answer whether its protein stability index meets or surpasses 2.
yes

Given the entry `C8Q` , answer whether its protein stability index meets or surpasses 2.
yes

Given the entry `L23M` , answer whether its protein stability index meets or surpasses 2.
no

Given the entry `V24Q` , answer whether its protein stability index meets or surpasses 2.
yes

Given the entry `L21V` , answer whether its protein stability index meets or surpasses 2.
yes

Given the entry `D6V` , answer whether its protein stability index meets or surpasses 2.
yes

Given the entry `E19H` , answer whether its protein stability index meets or surpasses 2.
yes

Given the entry `K18G` , answer whether its protein stability index meets or surpasses 2.
no

Given the entry `E19D` , answer whether its protein stability index meets or surpasses 2.
no

Given the entry `F15K` , answer whether its protein stability index meets or surpasses 2.
yes

Given the entry `L4T` , answer whether its protein stability index meets or surpasses 2.
no

Given the entry `L5T` , answer whether its protein stability index meets or surpasses 2.
no

Given the entry `A16E` , answer whether its protein stability index meets or surpasses 2.
yes

Given the entry `F15N` , answer whether its protein stability index meets or surpasses 2.
yes

Given the entry `E2V` , answer whether its protein stability index meets or surpasses 2.
yes

Given the entry `S10A` , answer whether its protein stability index meets or surpasses 2.
yes
